- run.description: Peptide toxins in the blood / toxicokinetics in beagles with biliary drainage
- Assay type: in vivo, beagle dogs
- details: male, beagle, dog; 60 mg/kg Amanita exitialis oral, biliary drainage, plasma, mean ± SD; read-out: Vz/F
- Protocol: The study was approved by National Institute of Occupational Health and Poison Control review board for animal experiments. Twenty-four male beagles (age, 8–10 months; weight, 10 ± 1 kg) were obtained from Beijing Institute of Xieerxin Biology Resource (Beijing, China). […] Peptide toxins in blood and urine samples were analyzed as described previously. Bile samples from Days 0–1, Days 1–2, Days 2–3, and Days 3–4 were collected and stored in medical drainage bags and the bile volume was recorded. […]
*1 amine or outer side, *2 acyl side, *3 side chain or, on linkers, in order; H or OH if unused. Where a SMILES comes first, the peptide text is derived from it. Bridges are numbered along the chain shown (N, C = ends). [ ]: non-standard residue; d: D form. Trp(2-yl) = O=C([C@H](Cc1c([*:3])[nH]c2ccccc12)N[*:1])[*:2]; Leu(4R-OH,5-OH) = C[C@](O)(CO)C[C@H](N)C(=O)O; dAsp(3S-OH) = N[C@@H](C(=O)O)[C@H](O)C(=O)O; cisHyp = O=C(O)[C@@H]1C[C@H](O)CN1
Reported values of Vd/F for individual entries
parameter.measured: Vd/F (L/kg)

- molecule: "CC(C)[C@@H]1NC(=O)[C@H](C[C@@](C)(O)CO)NC(=O)[C@@H]2Cc3c([nH]c4ccccc34)SC[C@H](NC(=O)[C@@H]([C@H](O)C(=O)O)NC1=O)C(=O)N1C[C@@H](O)C[C@H]1C(=O)N[C@@H](C)C(=O)N2 [phallacidin] (cyclo(A[Trp(2-yl)][Leu(4R-OH,5-OH)]V[dAsp(3S-OH)]C[cisHyp]); thioether 2-6)"
  reported.result: 1.77
- molecule: "CC[C@H](C)[C@@H]1NC(=O)CNC(=O)[C@@H]2Cc3c([nH]c4cc(O)ccc34)[S@+]([O-])C[C@H](NC(=O)CNC1=O)C(=O)N[C@@H](CC(=O)O)C(=O)N1C[C@H](O)C[C@H]1C(=O)N[C@@H]([C@@H](C)[C@@H](O)CO)C(=O)N2 [β-amanitin]"
  reported.result: 1.38
- molecule: "CC[C@H](C)[C@@H]1NC(=O)CNC(=O)[C@@H]2Cc3c([nH]c4cc(O)ccc34)[S@+]([O-])C[C@H](NC(=O)CNC1=O)C(=O)N[C@@H](CC(N)=O)C(=O)N1C[C@H](O)C[C@H]1C(=O)N[C@@H]([C@@H](C)[C@@H](O)CO)C(=O)N2 [α-amanitin]"
  reported.result: 0.68
